- test.target: wild-type human ALK (cytoplasmic domain, amino acids 1058-1620, N-terminal GST fusion) (Homo sapiens, UniProt Q9UM73)
- Construct: The cytoplasmic domain (amino acids 1058-1620) of wild-type human ALK; GST (N); made in house; host or cells: SF9 insect cells
- Sequence (Q9UM73 1058-1620): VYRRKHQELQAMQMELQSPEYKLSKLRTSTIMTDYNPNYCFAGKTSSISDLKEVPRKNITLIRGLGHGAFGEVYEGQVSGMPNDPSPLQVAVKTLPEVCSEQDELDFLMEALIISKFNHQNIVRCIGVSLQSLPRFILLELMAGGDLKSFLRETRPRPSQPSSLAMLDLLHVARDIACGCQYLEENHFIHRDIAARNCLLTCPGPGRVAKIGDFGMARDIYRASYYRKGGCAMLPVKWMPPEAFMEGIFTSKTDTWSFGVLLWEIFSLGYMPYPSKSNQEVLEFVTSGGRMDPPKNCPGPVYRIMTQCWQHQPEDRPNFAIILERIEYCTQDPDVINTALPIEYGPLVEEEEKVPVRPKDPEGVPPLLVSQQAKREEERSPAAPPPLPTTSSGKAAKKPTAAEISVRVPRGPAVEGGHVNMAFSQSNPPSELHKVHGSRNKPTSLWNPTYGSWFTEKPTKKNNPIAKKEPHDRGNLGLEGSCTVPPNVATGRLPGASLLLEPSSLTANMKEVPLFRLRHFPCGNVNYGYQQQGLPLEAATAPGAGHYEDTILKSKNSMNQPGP
- experimental.protocol: ALK Inhibition in Enzyme Assay (Lance TR-FRET kinase assay)
- Assay type: biochemical
# Lookup of reported IC50 keyed by entry

Some solved cases for reference:
COC(=O)[C@H]1CC[C@@H](n2c(NC(=O)c3ccccc3)nc3ccc(CN4C(C)(C)CCCC4(C)C)cc32)CC1 [Example 19]    < 50 nM
COc1ccc(C(=O)/N=c2\[nH]c3ccc(CN4CCC(C(C)(C)O)CC4)cc3n2[C@H]2CC[C@@H](C(=O)NC(C)C)CC2)cc1 [Example 151]    < 50 nM
CC(C)NC(=O)[C@H]1CC[C@@H](n2/c(=N/C(=O)c3cccc(F)c3)[nH]c3cnc(OCCN4CCCCC4)cc32)CC1 [Example 108]    < 50 nM

For CC(C)C(=O)N[C@H]1CC[C@@H](n2/c(=N/C(=O)c3cccc(F)c3)[nH]c3ccc(CN4CCC(C(C)(C)O)CC4)cc32)CC1 [Example 228] , what is its reported IC50?
100 to 1000 nM

Given CC(C)NC(=O)[C@H]1CC[C@@H](n2/c(=N/C(=O)c3ccc(F)c(C(F)(F)F)c3)[nH]c3ccc(CN4CCC(C(C)(C)O)CC4)cc32)CC1 [Example 148] , state its recorded IC50.
< 50 nM

Find the recorded IC50 belonging to CC(C)NC(=O)[C@H]1CC[C@@H](n2/c(=N/C(=O)c3ccc(F)cc3)[nH]c3ccc(N4CCS(=O)(=O)CC4)cc32)CC1 [Example 239] and report it.
< 50 nM
